# SYSTEM_NAME: Alpha-glucosidase MAL12 (Saccharomyces cerevisiae (strain ATCC 204508 / S288c), UniProt P53341)
# Sequence (P53341 whole entry): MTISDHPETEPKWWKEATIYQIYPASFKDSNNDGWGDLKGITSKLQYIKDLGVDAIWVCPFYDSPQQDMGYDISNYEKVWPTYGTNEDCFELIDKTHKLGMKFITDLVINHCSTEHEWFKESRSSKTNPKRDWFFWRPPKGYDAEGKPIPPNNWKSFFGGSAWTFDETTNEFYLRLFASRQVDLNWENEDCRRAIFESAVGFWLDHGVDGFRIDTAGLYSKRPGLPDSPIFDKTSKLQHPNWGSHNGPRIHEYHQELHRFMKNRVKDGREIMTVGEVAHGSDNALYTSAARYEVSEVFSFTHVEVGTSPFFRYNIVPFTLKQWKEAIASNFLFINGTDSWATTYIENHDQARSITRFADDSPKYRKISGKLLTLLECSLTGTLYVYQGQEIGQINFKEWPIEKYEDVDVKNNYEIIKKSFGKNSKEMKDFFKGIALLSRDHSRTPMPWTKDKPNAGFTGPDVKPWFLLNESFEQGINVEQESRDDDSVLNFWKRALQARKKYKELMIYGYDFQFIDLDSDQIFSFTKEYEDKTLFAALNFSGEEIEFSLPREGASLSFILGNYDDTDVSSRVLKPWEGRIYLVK
# TEST_DESCRIPTION: Baker's Yeast α-Glucosidase Inhibition Assay
# TEST_PARAMETERS: pH 6.8; 37 °C
MEASURE: IC50 (µM)

Cc1cc2nc(-c3ccc(C(=O)NNC(=S)Nc4cccc(Br)c4)cc3)[nH]c2cc1C | 178

1 = Cc1cc2nc(-c3ccc(C(=O)NNC(=S)Nc4ccc(F)cc4)cc3)[nH]c2cc1C
2 = Cc1cc2nc(-c3ccc(C(=O)NNC(=S)Nc4ccc(Br)cc4)cc3)[nH]c2cc1C
Incoming: Identify the entry with the smaller IC50: 1 or 2 . To answer, give the label that identifies your chosen option.
Outgoing: 2

---

# SYSTEM_NAME: Alpha-glucosidase MAL12 (Saccharomyces cerevisiae (strain ATCC 204508 / S288c), UniProt P53341)
# TEST_DESCRIPTION: Baker's Yeast α-Glucosidase Inhibition Assay
# TEST_PARAMETERS: pH 6.8; 37 °C
MEASURE: IC50 (µM)

COc1ccccc1NC(=S)NNC(=O)c1ccc(-c2nc3cc(C)c(C)cc3[nH]2)cc1 | 346
Cc1cc2nc(-c3ccc(C(=O)NNC(=S)Nc4ccc(C(F)(F)F)cc4)cc3)[nH]c2cc1C | 163
COc1ccc(NC(=S)NNC(=O)c2ccc(-c3nc4cc(C)c(C)cc4[nH]3)cc2)cc1 | 305

A = Cc1cc2nc(-c3ccc(C(=O)NNC(=S)Nc4ccc(Cl)cc4)cc3)[nH]c2cc1C
B = Cc1ccc(NC(=S)NNC(=O)c2ccc(-c3nc4cc(C)c(C)cc4[nH]3)cc2)cc1
Incoming: Compare A and B by numeric IC50 and name the larger one. To answer, give the label that identifies your chosen option.
Outgoing: B
(B: 298 µM, A: 187 µM)

---

# SYSTEM_NAME: Alpha-glucosidase MAL12 (Saccharomyces cerevisiae (strain ATCC 204508 / S288c))
# TEST_DESCRIPTION: Baker's Yeast α-Glucosidase Inhibition Assay
# TEST_PARAMETERS: pH 6.8; 37 °C
pIC50: −log10 of the molar value.
MEASURE: pIC50

COc1cccc(NC(=S)NNC(=O)c2ccc(-c3nc4cc(C)c(C)cc4[nH]3)cc2)c1 | 4.14
Cc1cc2nc(-c3ccc(C(=O)NNC(=S)Nc4ccccc4Cl)cc3)[nH]c2cc1C | 3.55
Cc1cc2nc(-c3ccc(C(=O)NNC(=S)Nc4ccc(Cl)c(Cl)c4)cc3)[nH]c2cc1C | 4.21
Cc1cc2nc(-c3ccc(C(=O)NNC(=S)Nc4ccccc4F)cc3)[nH]c2cc1C | 3.64
Cc1cc2nc(-c3ccc(C(=O)NNC(=S)Nc4ccc([N+](=O)[O-])cc4)cc3)[nH]c2cc1C | 4.45
Cc1cccc(NC(=S)NNC(=O)c2ccc(-c3nc4cc(C)c(C)cc4[nH]3)cc2)c1 | 3.66
Cc1cc2nc(-c3ccc(C(=O)NNC(=S)Nc4ccccc4Br)cc3)[nH]c2cc1C | 3.89

P = Cc1cc2nc(-c3ccc(C(=O)NNC(=S)Nc4cccc([N+](=O)[O-])c4)cc3)[nH]c2cc1C
Q = Cc1cc2nc(-c3ccc(C(=O)NNC(=S)Nc4cccc(F)c4)cc3)[nH]c2cc1C
Incoming: Identify the entry with the smaller pIC50: P or Q . To answer, give the label that identifies your chosen option.
Outgoing: Q
(Q: 3.61, P: 3.93)
